Reference source: patent US20230416365A1

For each record, write down the corresponding Kd.
Target: T1, Hu N(A2-B2)A-avi-His (human, biotinylated at the avi tag (Example 2.2))
T1 construct: also called hu N(A2-B2)A-avi-His B; CEACAM5-based antigen
T1 chain: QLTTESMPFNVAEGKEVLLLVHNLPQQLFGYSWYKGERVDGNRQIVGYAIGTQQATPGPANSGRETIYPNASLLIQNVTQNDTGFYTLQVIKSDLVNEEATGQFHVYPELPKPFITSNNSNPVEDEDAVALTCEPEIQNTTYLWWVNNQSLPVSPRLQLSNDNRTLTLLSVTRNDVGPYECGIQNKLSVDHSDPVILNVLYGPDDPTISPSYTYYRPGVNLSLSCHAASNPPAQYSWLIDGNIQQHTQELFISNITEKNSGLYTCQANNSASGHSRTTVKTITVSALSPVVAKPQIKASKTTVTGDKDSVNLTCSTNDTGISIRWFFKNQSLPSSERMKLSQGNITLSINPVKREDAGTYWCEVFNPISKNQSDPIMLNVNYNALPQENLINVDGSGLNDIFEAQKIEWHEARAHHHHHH
Assay: SPR, Biacore T200, antigen amine-coupled on CM5, Fab as analyte
Write the number in nM without appending the unit.

Memo: Fab derived from P1AE2176 (Fab, V domains shown, Fab; also called P1AE4139) VH: EVQLLESGGGLVQPGGSLRLSCAASGFTFTDYYMNWVRQAPGKGLEWVGFIGNKANGYTTEYSASVKGRFTISRDNSKNTLYLQMNSLRAEDTAVYYCTRDRGLRFYFDYWGQGTTVTVSS VL: EIVLTQSPATLSLSPGERATLSCRASSSVTYIHWYQQKPGSSPKSWIYATSNLASGIPARFSGSGSGTDFTLTISSLEPEDFAVYYCQHWSSKPPTFGQGTKLEIK , reported Kd: 7.58

Memo: CEA (A5B7) Fab (parental murine antibody) (Fab, V domains shown, Fab; also called P1AE0289) VH: EVKLVESGGGLVQPGGSLRLSCATSGFTFTDYYMNWVRQPPGKALEWLGFIGNKANGYTTEYSASVKGRFTISRDKSQSILYLQMNTLRAEDSATYYCTRDRGLRFYFDYWGQGTTLTVSS VL: QTVLSQSPAILSASPGEKVTMTCRASSSVTYIHWYQQKPGSSPKSWIYATSNLASGVPARFSGSGSGTSYSLTISRVEAEDAATYYCQHWSSKPPTFGGGTKLEIK , reported Kd: 0.559

Memo: Fab derived from P1AE2164 (Fab, V domains shown, Fab; also called P1AE4135) VH: EVQLLESGGGLVQPGGSLRLSCAASGFTFTDYYMNWVRQAPGKGLEWLGFIGNKANGYTTEYSASVKGRFTISRDKSKNTLYLQMNSLRAEDTATYYCTRDRGLRFYFDYWGQGTTVTVSS VL: QTVLTQSPATLSLSPGERATLSCRASSSVTYIHWYQQKPGSSPKSWIYATSNLASGIPARFSGSGSGTDYTLTISSLEPEDFAVYYCQHWSSKPPTFGQGTKLEIK , reported Kd: 1.7

Memo: Fab derived from P1AE2181 (Fab, V domains shown, Fab; also called P1AE4142) VH: EVQLLESGGGLVQPGGSLRLSCAASGFTFTDYYMNWVRQAPGKGLEWVGFIGNKANGYTTEYSASVKGRFTISRDKSKNTLYLQMNSLRAEDTAVYYCARDRGLRFYFDYWGQGTTVTVSS VL: EIVLTQSPATLSLSPGERATLSCRASSSVTYIHWYQQKPGSSPKSWIYATSNLASGIPARFSGSGSGTDFTLTISSLEPEDFAVYYCQHWSSKPPTFGQGTKLEIK , reported Kd: 2.64

Memo: Fab derived from P1AE2182 (Fab, V domains shown, Fab; also called P1AE4143) VH: EVQLLESGGGLVQPGGSLRLSCAASGFTFTDYYMNWVRQAPGKGLEWVGFIGNKANGYTTEYSASVKGRFTISRDKSKNTLYLQMNSLRAEDTAVYYCARDRGLRFYFDYWGQGTTVTVSS VL: EIVLTQSPATLSLSPGERATLSCRASSSVTYIHWYQQKPGQAPRSWIYATSNLASGIPARFSGSGSGTDFTLTISSLEPEDFAVYYCQHWSSKPPTFGQGTKLEIK , reported Kd: 2.92

Memo: Fab derived from P1AE2167 (Fab, V domains shown, Fab; also called P1AE4138) VH: EVQLLESGGGLVQPGGSLRLSCAASGFTFTDYYMNWVRQAPGKGLEWLGFIGNKANGYTTEYSASVKGRFTISRDKSKNTLYLQMNSLRAEDTATYYCTRDRGLRFYFDYWGQGTTVTVSS VL: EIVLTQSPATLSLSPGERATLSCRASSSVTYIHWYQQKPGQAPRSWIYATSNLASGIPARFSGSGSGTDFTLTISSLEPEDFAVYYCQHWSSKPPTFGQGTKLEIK , reported Kd: 1.47

Memo: Fab derived from P1AE2165 (Fab, V domains shown, Fab; also called P1AE4136) VH: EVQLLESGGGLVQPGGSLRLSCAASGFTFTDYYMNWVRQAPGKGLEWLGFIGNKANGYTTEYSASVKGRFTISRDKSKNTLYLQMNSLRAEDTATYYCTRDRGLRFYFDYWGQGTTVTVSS VL: QTVLTQSPATLSLSPGERATLSCRASSSVTYIHWYQQKPGQAPRLLIYATSNLASGIPARFSGSGSGTDFTLTISSLEPEDFAVYYCQHWSSKPPTFGQGTKLEIK , reported Kd: 1.25

Memo: Fab derived from P1AE2177 (Fab, V domains shown, Fab; also called P1AE4140) VH: EVQLLESGGGLVQPGGSLRLSCAASGFTFTDYYMNWVRQAPGKGLEWVGFIGNKANGYTTEYSASVKGRFTISRDNSKNTLYLQMNSLRAEDTAVYYCTRDRGLRFYFDYWGQGTTVTVSS VL: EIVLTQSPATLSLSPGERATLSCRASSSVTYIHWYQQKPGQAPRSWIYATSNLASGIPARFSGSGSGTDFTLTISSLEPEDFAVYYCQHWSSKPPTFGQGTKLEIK , reported Kd: 7.62

Memo: Fab derived from P1AE2179 (Fab, V domains shown, Fab; also called P1AE4141) VH: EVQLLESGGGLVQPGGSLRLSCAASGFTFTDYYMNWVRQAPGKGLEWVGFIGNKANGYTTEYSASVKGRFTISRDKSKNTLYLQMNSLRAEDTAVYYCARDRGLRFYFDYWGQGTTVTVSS VL: QTVLTQSPATLSLSPGERATLSCRASSSVTYIHWYQQKPGSSPKSWIYATSNLASGIPARFSGSGSGTDYTLTISSLEPEDFAVYYCQHWSSKPPTFGQGTKLEIK , reported Kd: 1.83

Memo: Fab derived from P1AE2166 (Fab, V domains shown, Fab; also called P1AE4137) VH: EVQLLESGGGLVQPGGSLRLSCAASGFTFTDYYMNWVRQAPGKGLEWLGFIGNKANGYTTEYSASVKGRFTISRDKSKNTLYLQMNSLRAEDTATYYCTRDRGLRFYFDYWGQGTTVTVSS VL: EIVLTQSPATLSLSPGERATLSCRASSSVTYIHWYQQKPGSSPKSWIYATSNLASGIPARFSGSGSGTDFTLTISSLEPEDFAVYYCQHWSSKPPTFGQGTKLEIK , reported Kd: 11.3
